- Target Or Test System: Glucocorticoid receptor (Homo sapiens)
- Experiment Description: qHTS assay for small molecule agonists of glucocorticoid receptor signaling (AID 588532);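 note: 100% = dexamethasone at 0.1 µM and 0% = DMSO only wells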
- Measurement Conditions: HeLa MMTV-bla, beta-lactamase ratio, agonist, 18 h; active compounds read high; percent of dexamethasone control, DMSO zero
Inconclusive results are not listed.
Attribute Measured: activation (%)

molecule="C[N+](C)(C)CC(O)CCl (centres undefined)" attribute_measured=activation observed=-7.46
molecule=CC1(C)C(=O)NC(=O)N1CO attribute_measured=activation observed=-5.05
molecule=C=C(C)C(=O)OCCCCCCCCCCCC attribute_measured=activation observed=-1.63
molecule=Nc1cc(Cl)nc(C(=O)O)c1Cl attribute_measured=activation observed=-6.13
molecule=CCCCCCCCCCCC(=O)N(C)CC(=O)O attribute_measured=activation observed=-0.898
molecule=CCCN(CCC)c1c([N+](=O)[O-])cc(C(F)(F)F)c(N)c1[N+](=O)[O-] attribute_measured=activation observed=-4.44
molecule=Cc1ccc(S(=O)(=O)N=C=O)cc1 attribute_measured=activation observed=20.2
molecule="CC(C)C(=O)OCC(C)(C)C(O)C(C)C (centres undefined)" attribute_measured=activation observed=-3.75
molecule=COc1nc(C)nc(NC(=O)NS(=O)(=O)c2ccccc2OCCCl)n1 attribute_measured=activation observed=-18.5
molecule=C=C(C)C(=O)OCCCCCCCCCCCCCCCC attribute_measured=activation observed=0.746
molecule=CC/C=C/CCCCCCCCCCOC(C)=O attribute_measured=activation observed=2.34
molecule=Cc1ccc(Cl)cc1Cl attribute_measured=activation observed=-2.65
molecule=CC(=O)CC(=O)Nc1ccccc1C attribute_measured=activation observed=2.41
molecule=CCC(=O)OCCc1ccccc1 attribute_measured=activation observed=-12.1
molecule="Cn1c(=O)[nH]c(=O)n(C2CCC(O)CC2)c1=O (centres undefined)" attribute_measured=activation observed=-2.18
molecule=CCCCCCCCCCCCCc1ccccc1 attribute_measured=activation observed=-7.21
molecule=C=C(C)C(=O)OCCOC(=O)C(=C)C attribute_measured=activation observed=-0.861
molecule=CCO[Si](CCC#N)(OCC)OCC attribute_measured=activation observed=2.23
molecule=Cc1c(Cl)cccc1Cl attribute_measured=activation observed=-6.09
molecule="CCCCC(CC)CN1C(=O)C2C3C=CC(C3)C2C1=O (centres undefined)" attribute_measured=activation observed=-12.6
molecule=CC(C)c1ccc(C(C)C)cc1 attribute_measured=activation observed=1.07
molecule=CS/C(=N\O)C(=O)N(C)C attribute_measured=activation observed=1.45
molecule=O=[N+]([O-])c1ccc(O)cc1C(F)(F)F attribute_measured=activation observed=-7.74
molecule=O=C(Cl)c1cc(Cl)cc(Cl)c1 attribute_measured=activation observed=-2.63
molecule=COC(=O)c1ccccc1C(=O)O attribute_measured=activation observed=-3.15
molecule=CCCCCCCCCCCCCCCCN(C)C attribute_measured=activation observed=-11.7
molecule=CC(C)c1ccc2cc(C(C)C)ccc2c1 attribute_measured=activation observed=-1.13
molecule=CC1(C)[C@@H]([C@@H](Br)C(Br)(Br)Br)[C@H]1C(=O)O[C@H](C#N)c1cccc(Oc2ccccc2)c1 attribute_measured=activation observed=-6.04
molecule=Cc1cc(C)c(N)c(Cl)c1 attribute_measured=activation observed=5.1

###

- Experiment Description: qHTS for Inhibitors of Plasmodium falciparum (7G8) proliferation (AID 504316); note: nearly all actives have a fitted effect of over 65% in size
- Measurement Conditions: P. falciparum 7G8 in erythrocytes, SYBR Green DNA, 72 h; series mostly up to 6.7 µM
Inconclusive results are not listed. Activity calls are given as the source filed them. Calls follow the shape of the dose curve; as a rule, active = well fitted inhibition curve with a large enough effect; inconclusive = small, poorly fitted or top-dose-only effect; inactive = flat fitted curve, though single readings scatter.
Labels: true for active, false for inactive

smiles_repr=COC(=O)C1=C(C(=O)OC)[C@@H]2N(Cc3ccccc3)c3ccccc3[C@@]23C[C@@H](C(=O)OC)N(S(=O)(=O)c2ccc(Br)cc2)C3=N1 answer_label=true
smiles_repr=COc1ccc(-c2nc3c(c4c2C[C@H](c2ccccc2)OC4)CN(S(=O)(=O)c2ccc(C#N)cc2)CC3)c(C)c1 answer_label=true
smiles_repr=COC(=O)[C@@H]1[C@@H](C)N(Cc2ccccc2)C(=O)N[C@H]1c1cccc(C(F)(F)F)c1 answer_label=false
smiles_repr=CCCCn1c(C)cc2c(c1=O)[C@H]1O[C@](c3ccsc3)(Cc3ccccc31)O2 answer_label=true
